target: Sigma-1 receptor; test: Sigma-1 receptor competitive radioligand binding assay; conditions: read-out: Sigma-1 Receptor Affinity, Ki
Attribute: Ki

- Compound: "COc1cc(CC[C@@H](C)N2Cc3ccc(F)cc3C2)ccc1OCCO [compound 30]"
  Target Under Test: "Sigma-1 receptor"
  Ki (nM): 220
- Compound: "C[C@H](CCc1ccc(Cl)c(Cl)c1)N1Cc2ccc(C(F)(F)F)cc2C1 [compound 4]"
  Target Under Test: "Sigma-1 receptor"
  Ki (nM): 33
- Compound: "COc1cc(CCC(C)(C)N2Cc3cccc(F)c3C2)ccc1O [compound 53]"
  Target Under Test: "Sigma-1 receptor"
  Ki (nM): 110
- Compound: "CC(C)COc1cc(CCC(C)(C)N2Cc3cccc(F)c3C2)ccc1O [compound 88]"
  Target Under Test: "Sigma-1 receptor"
  Ki (nM): 96
